In this section we review reported pKd values for a set of binders.
target_of_assay: T1, PUF4 RNA-binding domain (Saccharomyces cerevisiae, UniProt P25339 537-888)
T1 sequence: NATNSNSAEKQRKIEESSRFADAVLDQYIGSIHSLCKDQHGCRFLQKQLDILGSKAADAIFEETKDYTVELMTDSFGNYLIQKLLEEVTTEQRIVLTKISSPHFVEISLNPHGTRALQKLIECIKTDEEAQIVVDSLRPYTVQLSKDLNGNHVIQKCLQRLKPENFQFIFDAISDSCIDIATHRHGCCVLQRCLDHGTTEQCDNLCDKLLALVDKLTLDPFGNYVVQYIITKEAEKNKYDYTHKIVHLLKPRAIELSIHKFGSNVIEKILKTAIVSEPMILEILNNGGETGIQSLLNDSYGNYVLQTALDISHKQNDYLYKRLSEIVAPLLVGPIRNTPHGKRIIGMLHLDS
assay_summary: Mg; RNA-MaP; 20 mM Na-HEPES pH 7.4, 30 mM KOAc, 0.75 mM MgCl2, 0.1% Tween-20, 5% glycerol, 0.1 mg/mL BSA, 2 mM DTT; 25 C; 0.0125-409.6 nM protein
experimental_setup: tags: N-His6-TEV cleaved; C-SNAP kept, Cy3B-labelled; label: tethered on chip by stalled RNA polymerase
pKd: −log10 of the molar value.

{"columns": ["binder", "pKd"],
 "data": [
  ["UCUCUUUGUAGCGUGUCUCUU (ssRNA) [Ic_S1_P4E.1_K4.1_C4.1_H4.1_A4.1_[T5G]_[A6C]_[T7G]_F4.1_[A9G]_T4.1]", 5.70],
  ["UCUCUUUGUAAUGUUCUCUU (ssRNA) [Ic_S1_P3E.1_K3.1_C3.1_H3.1_A3.1_[T5A]_[A6T]_F3.1_[T7G]_[A8T]_T3.1]", 6.48],
  ["Id_iii_S2_P4E.8_K4.4_C4.3_[C-2A]_H4.1_A4.2_F4.1_T4.2 (ssRNA) RNA: UUUGAUUAAUAUGAUAUCGUUCUUUCUUAUUGUAUUUUAGUUUCUUUCUCGAUAUCAUAUUAAUCUUU", 8.75],
  ["UCUCUUUGUAUCCUCAUUAUCUCUU (ssRNA) [Ie_S1_P4E.1_K4.1_C4.1_H4.1_A4.1_[+5CCTC]_F4.1_T4.1]", 7.42],
  ["Id_iii_S4_P4E.8_K4.4_C4.3_[T-1C]_H4.1_A4.2_F4.1_T4.2 (ssRNA) RNA: UUUGACAACUGAUCGUUCUUUCUUCCUGUAUUUUAGUUUCUUUCUCGAUCAGUUGUCUUU", 9.09],
  ["Ie_S2_P4E.1_K4.1_C4.1_H4.1_A4.1_F4.1_[+9T]_T4.1 (ssRNA) RNA: UUUGAUUAAUAUGAUAUCGUUCUUUCUUGUAUAUUAUUUCUUUCUCGAUAUCAUAUUAAUCUUU", 9.58]
]}
